Origin of values: patent US10335409B2

test system: genotype 1a (H77) stable HCV replicon in Huh-7-derived cells; assay: Stable subgenomic HCV replicon EC50, genotype 1a (Renilla luciferase); format: cell-based, hepatitis C virus; details: Hepatitis C virus, stable replicon genotype 1a, 72 h, read-out: EC50 1A RLUC
endpoint-name: EC50 (nM)
Give bare numbers, in nM.

Answer for every listed entry: what is its EC50? The entries follow.
1. CC[C@@H]1[C@@H]2CN(C(=O)[C@H](C(C)(C)C)NC(=O)O[C@@H]3C[C@H]3CCCCC(F)(F)c3nc4ccc(C#N)cc4nc3O2)[C@@H]1C(=O)N[C@]1(C(=O)NS(=O)(=O)C2(C)CC2)C[C@H]1C(F)F
2. COc1ccc2nc3c(nc2c1)O[C@H]1CN(C(=O)[C@H](C(C)(C)C)NC(=O)O[C@@H]2C[C@@H]4C[C@@H]4[C@H]2CCCCC3)[C@H](C(=O)NC2(C(=O)NS(=O)(=O)C3CC3)C[C@H]2C(F)F)[C@@H]1C (stereo in doubt)
3. COc1ccc2nc3c(nc2c1)O[C@H]1CN(C(=O)[C@H](C(C)(C)C)NC(=O)O[C@@H]2C[C@H]2CCCCC3)[C@H](C(=O)N[C@]2(C(=O)NS(=O)(=O)C3CC3)C[C@H]2C(F)F)[C@@H]1C
4. COc1ccc2nc3c(nc2c1)O[C@H]1CN(C(=O)[C@H](C(C)(C)C)NC(=O)O[C@@H]2C[C@@H]4C[C@@H]4[C@H]2CCCCC3)[C@H](C(=O)N[C@]2(C(=O)NS(=O)(=O)C3(C)CC3)C[C@H]2CC(F)F)[C@@H]1C

-- reply
1. 4.8
2. 7.6
3. 4
4. 12

====

I'd be grateful if you could share measured pEC50 for these entries.
test system: genotype 3a (S52) wild type transient HCV replicon in Huh-7-derived cells; experiment: Transient-transfected HCV replicon EC50, genotype 3a wild type; format: cell-based, hepatitis C virus; conditions: Hepatitis C virus; transient-transfected replicon genotype 3a wild type, 72 h; read-out: EC50 3A WT
Numbers only, as −log10 of the molar value.

-- ask What does the record list as pEC50 for "CC[C@@H]1[C@@H]2CN(C(=O)[C@H](C(C)(C)C)NC(=O)O[C@@H]3C[C@H]3CCCCC(F)(F)c3nc4ccccc4nc3O2)[C@@H]1C(=O)N[C@]1(C(=O)NS(=O)(=O)C2CC2)C[C@H]1CC" ?
-- reply 6.83

-- ask What does the record list as pEC50 for "CC[C@@H]1[C@@H]2CN(C(=O)[C@H](C(C)(C)C)NC(=O)O[C@@H]3[C@H]4CC[C@H](C4)[C@H]3CCCCCc3nc4ccc(OC)cc4nc3O2)[C@@H]1C(=O)N[C@]1(C(=O)NS(=O)(=O)C2(C)CC2)C[C@H]1C(F)F" ?
-- reply 7.16

-- ask What does the record list as pEC50 for CC[C@@H]1[C@@H]2CN(C(=O)[C@H](C(C)(C)C)NC(=O)O[C@@H]3C[C@H]3CCCCC(F)(F)c3nc4ccc(OC)cc4nc3O2)[C@@H]1C(=O)NC1(C(=O)NS(=O)(=O)C2CC2)C[C@H]1C(F)F (stereo partly shown) ?
-- reply 8.00

Now for a further molecule.
-- ask What does the record list as pEC50 for "CCC[C@@H]1[C@@H]2CN(C(=O)[C@H](C(C)(C)C)NC(=O)O[C@@H]3C[C@H]3CCCCC(F)(F)c3nc4ccc(OC)cc4nc3O2)[C@@H]1C(=O)N[C@]1(C(=O)NS(=O)(=O)C2CC2)C[C@H]1C(F)F" ?
-- reply 8.01

====

tested on: genotype 3a (S52) wild type transient HCV replicon in Huh-7-derived cells; assay: Transient-transfected HCV replicon EC50, genotype 3a wild type; assay type: cell-based, hepatitis C virus; details: Hepatitis C virus; transient-transfected replicon genotype 3a wild type, 72 h; read-out: EC50 3A WT
I'd be grateful if you could share measured EC50 for these entries.
Numbers only, in µM.

These recorded examples may help you get a feel for the data.
-- ask What does the record list as EC50 for "CC[C@@H]1[C@@H]2CN(C(=O)[C@H](C(C)(C)C)NC(=O)O[C@@H]3C[C@H]3CCCCCc3nc4ccc(OC)cc4nc3O2)[C@@H]1C(=O)N[C@]1(C(=O)NS(=O)(=O)C2(C)CC2)C[C@H]1C(F)F" ?
-- reply 0.017

-- ask What does the record list as EC50 for "CC[C@@H]1[C@@H]2CN(C(=O)[C@H](C(C)(C)C)NC(=O)O[C@@H]3C[C@H]3CCCCC(F)(F)c3nc4ccc(OC)cc4nc3O2)[C@@H]1C(=O)N[C@]1(C(=O)NS(=O)(=O)C2(C)CC2)C[C@H]1CC(F)F" ?
-- reply 0.035

Answer for every listed entry: what is its EC50? The entries follow.
1. C[C@@H]1[C@@H]2CN(C(=O)[C@H](C(C)(C)C)NC(=O)O[C@@H]3C[C@@H]4C[C@@H]4[C@H]3CCCCCc3nc4ccc(Cl)cc4nc3O2)[C@@H]1C(=O)N[C@]1(C(=O)NS(=O)(=O)C2CC2)C[C@H]1C(F)F
2. CC[C@@H]1[C@@H]2CN(C(=O)[C@H](C(C)(C)C)NC(=O)O[C@]3(C)CCC[C@H]3CCCCCc3nc4ccc(OC)cc4nc3O2)[C@@H]1C(=O)N[C@]1(C(=O)NS(=O)(=O)C2CC2)C[C@H]1CC
3. CC[C@@H]1[C@@H]2CN(C(=O)[C@H](C(C)(C)C)NC(=O)O[C@@H]3C[C@H]3CCCCC(F)(F)c3nc4ccc(OC)cc4nc3O2)[C@@H]1C(=O)N[C@]1(C(=O)NS(=O)(=O)C2(C)CC2)C[C@H]1C(F)F
4. CC[C@@H]1[C@@H]2CN(C(=O)[C@H](C(C)(C)C)NC(=O)O[C@]3(C)CCC[C@H]3CCCCCc3nc4ccc(OC)cc4nc3O2)[C@@H]1C(=O)N[C@]1(C(=O)NS(=O)(=O)C2CC2)C[C@H]1C(F)F
5. C=C[C@@H]1C[C@]1(NC(=O)[C@@H]1[C@H](CC)[C@@H]2CN1C(=O)[C@H](C(C)(C)C)NC(=O)O[C@@H]1C[C@H]1CCCCCc1nc3ccc(OC)cc3nc1O2)C(=O)NS(=O)(=O)C1CC1
6. CC[C@@H]1[C@@H]2CN(C(=O)[C@H](C(C)(C)C)NC(=O)O[C@@]3(C)C[C@@H]3CCCCC(F)(F)c3nc4ccc(OC)cc4nc3O2)[C@@H]1C(=O)N[C@]1(C(=O)NS(=O)(=O)C2(C)CC2)C[C@H]1C(F)F

-- reply
[0.0092, 0.265, 0.0061, 0.156, 0.025, 0.256]

-- ask What does the record list as EC50 for "CC[C@@H]1[C@@H]2CN(C(=O)[C@H](C(C)(C)C)NC(=O)O[C@@H]3C[C@H]3CCCCC(F)(F)c3nc4ccc(C#N)cc4nc3O2)[C@@H]1C(=O)N[C@]1(C(=O)NS(=O)(=O)C2(C)CC2)C[C@H]1C(F)F" ?
-- reply 0.0077

====

Test system: genotype 1a (H77) stable HCV replicon in Huh-7-derived cells
Assay: Stable subgenomic HCV replicon EC50, genotype 1a (Renilla luciferase)
Type: cell-based, hepatitis C virus
Conditions: Hepatitis C virus, stable replicon genotype 1a, 72 h, read-out: EC50 1A RLUC
Method: Antiviral potency (EC50) was determined in both stable subgenomic HCV replicon cell lines and transient-transfected HCV replicon cells. […] To perform EC50 assays, cells from each HCV replicon were dispensed into 384-well plates. […] Seventy-two hours later, cells were lysed and Renilla luciferase activity were quantified as recommended by the manufacturer (Promega-Madison, Wis.). […]
I'd be grateful if you could share measured EC50 for these entries.
Give bare numbers, in nM.

-- ask What does the record list as EC50 for COc1ccc2nc3c(nc2c1)O[C@H]1CN(C(=O)[C@H](C(C)(C)C)NC(=O)O[C@@H]2CCN(C(C)=O)C2CCCCC3)[C@H](C(=O)N[C@]2(C(=O)NS(=O)(=O)C3(C)CC3)C[C@H]2C(F)F)[C@@H]1C (stereo partly drawn) ?
-- reply 1130

Answer for every listed entry: what is its EC50? The entries follow.
1. CC[C@@H]1[C@@H]2CN(C(=O)[C@H](C(C)(C)C)NC(=O)O[C@]3(C)CCC[C@H]3CCCCCc3nc4ccc(OC)cc4nc3O2)[C@@H]1C(=O)N[C@]1(C(=O)NS(=O)(=O)C2(C)CC2)C[C@H]1CC(F)F
2. COc1ccc2nc3c(nc2c1)O[C@H]1CN(C(=O)[C@H](C(C)(C)C)NC(=O)O[C@@H]2C[C@@H]4C[C@@H]4[C@H]2CCCCC3)[C@H](C(=O)N[C@]2(C(=O)NS(=O)(=O)C3CC3)C[C@H]2CC(F)F)[C@@H]1C
3. CCC[C@@H]1[C@@H]2CN(C(=O)[C@H](C(C)(C)C)NC(=O)O[C@@H]3C[C@H]3CCCCC(F)(F)c3nc4ccc(OC)cc4nc3O2)[C@@H]1C(=O)N[C@]1(C(=O)NS(=O)(=O)C2CC2)C[C@H]1C(F)F
4. C[C@@H]1[C@@H]2CN(C(=O)[C@H](C(C)(C)C)NC(=O)O[C@@H]3C[C@@H]4C[C@@H]4[C@H]3CCCCCc3nc4ccc(Cl)cc4nc3O2)[C@@H]1C(=O)N[C@]1(C(=O)NS(=O)(=O)C2CC2)C[C@H]1C(F)F
5. COc1ccc2nc3c(nc2c1)O[C@H]1CN(C(=O)[C@H](C(C)(C)C)NC(=O)O[C@@H]2CC4CC(C4)[C@H]2CCCCC3)[C@H](C(=O)N[C@]2(C(=O)NS(=O)(=O)C3CC3)C[C@H]2C(F)F)[C@@H]1C

-- reply
1: 135; 2: 12; 3: 11; 4: 7; 5: 6.5

Answer for every listed entry: what is its EC50? The entries follow.
1. C[C@@H]1[C@@H]2CN(C(=O)[C@H](C(C)(C)C)NC(=O)O[C@@H]3C[C@@H]4C[C@@H]4[C@H]3CCCCCc3nc4ccc(C#N)cc4nc3O2)[C@@H]1C(=O)NC1(C(=O)NS(=O)(=O)C2(C)CC2)C[C@H]1C(F)F (stereo partly drawn)
2. CC[C@@H]1[C@@H]2CN(C(=O)[C@H](C(C)(C)C)NC(=O)O[C@]3(C)C[C@H]3CCCCC(F)(F)c3nc4ccc(OC)cc4nc3O2)[C@@H]1C(=O)N[C@]1(C(=O)NS(=O)(=O)C2(C)CC2)C[C@H]1C(F)F
3. COc1ccc2nc3c(nc2c1)O[C@H]1CN(C(=O)[C@H](C(C)(C)C)NC(=O)O[C@@]2(C)C[C@@H]2CCCCC3)[C@H](C(=O)N[C@]2(C(=O)NS(=O)(=O)C3(C)CC3)C[C@H]2C(F)F)[C@@H]1C

-- reply
1. 6.3
2. 4.2
3. 21
